Origin of values: patent US12139492B2

TARGET UNDER TEST: BTK (Homo sapiens, UniProt Q06187)
Sequence (Q06187 whole entry): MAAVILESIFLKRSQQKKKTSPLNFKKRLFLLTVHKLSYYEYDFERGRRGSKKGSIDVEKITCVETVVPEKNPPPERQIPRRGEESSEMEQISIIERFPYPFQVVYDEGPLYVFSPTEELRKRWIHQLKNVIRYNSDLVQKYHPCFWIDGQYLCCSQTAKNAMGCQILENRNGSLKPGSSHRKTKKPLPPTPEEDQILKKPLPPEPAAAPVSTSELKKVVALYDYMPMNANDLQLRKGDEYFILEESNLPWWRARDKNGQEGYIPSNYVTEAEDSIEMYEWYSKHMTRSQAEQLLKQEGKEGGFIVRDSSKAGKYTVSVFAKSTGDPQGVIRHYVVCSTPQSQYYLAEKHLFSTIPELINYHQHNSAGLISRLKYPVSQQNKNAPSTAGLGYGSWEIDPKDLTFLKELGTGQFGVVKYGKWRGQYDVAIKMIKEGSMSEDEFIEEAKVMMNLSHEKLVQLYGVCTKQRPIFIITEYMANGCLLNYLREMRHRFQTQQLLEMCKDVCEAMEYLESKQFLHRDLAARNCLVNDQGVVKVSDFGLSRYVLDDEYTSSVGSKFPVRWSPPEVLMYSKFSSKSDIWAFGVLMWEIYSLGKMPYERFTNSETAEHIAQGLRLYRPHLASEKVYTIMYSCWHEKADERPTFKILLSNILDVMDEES
PROTOCOL: Degradation of BTK protein in Namalwa cells (Western blot; DC50, Dmax)
EXPERIMENTAL PARAMETERS: read-out: DC50 (BTK degradation); concentration giving 50% reduction of BTK expression level; cell line not given

| COMPOUND | TARGET UNDER TEST | DC50 |
| --- | --- | --- |
| Nc1ncnc2c1c(-c1ccc(Oc3ccccc3)cc1)nn2C1CCN(CCN2CCN(CCSc3ccc4c(c3)C(=O)N(C3CCC(=O)NC3=O)C4=O)CC2)CC1 (stereo not drawn) | BTK (Homo sapiens, UniProt Q06187) | 10 to 50 nM |
| Nc1ncnc2c1c(-c1ccc(Oc3ccccc3)cc1)nn2C1CCN([C@@H]2CCN(CC3CCN(c4ccc5c(c4)C(=O)N(C4CCC(=O)NC4=O)C5=O)CC3)C2)CC1 (stereo partly drawn) [Compound 449b] | BTK (Homo sapiens, UniProt Q06187) | < 10 nM |
| Nc1ncnc2c1c(-c1ccc(Oc3ccccc3)cc1)nn2C1CCN(CC2CCN(CC3CCN(c4ccc5c(c4)C(=O)N(C4CCC(=O)NC4=O)C5=O)CC3)C2)CC1 (stereo not drawn) | BTK (Homo sapiens, UniProt Q06187) | 10 to 50 nM |

----------
TARGET UNDER TEST: BTK (Homo sapiens, UniProt Q06187)
PROTOCOL: BTK degradation, DC50 and Dmax of Table 1 (cell line not given)
Assay type: cell-based
Set-up: endogenous in cells
Measured Dmax by item
OUTCOME MEASURE: Dmax

| MOLECULE | RECORDED RESULT |
| --- | --- |
| Nc1ncnc2c1c(-c1ccc(Oc3ccccc3)cc1)nn2[C@@H]1CCCN(C2CCN(CCC3CCN(c4ccc5c(c4)C(=O)N(C4CCC(=O)NC4=O)C5=O)CC3)CC2)C1 (stereo partly drawn) | > 75% |
| Nc1ncnc2c1c(-c1ccc(Oc3ccccc3)cc1)nn2[C@@H]1CCCN(C2CCN(C(=O)N3CCN(CC4CCN(c5ccc6c(c5)CN(C5CCC(=O)NC5=O)C6=O)CC4)CC3)CC2)C1 (stereo partly drawn) | > 90% |
| Nc1ncnc2c1c(-c1ccc(Oc3ccccc3)cc1)nn2C1CCN(CC2CCN(C(=O)N3CCN(c4ccc5c(c4)C(=O)N(C4CCC(=O)NC4=O)C5=O)CC3)CC2)CC1 (stereo not drawn) | > 90% |
| Nc1ncnc2c1c(-c1ccc(Oc3ccccc3)cc1)nn2[C@@H]1CCCN(C(=O)N2CCN(CCCN3CCN(c4ccc5c(c4)CN(C4CCC(=O)NC4=O)C5=O)CC3)CC2)C1 (stereo partly drawn) | > 75% |
| Nc1ncnc2c1c(-c1ccc(Oc3ccccc3)cc1)nn2C1CCN(C(=O)N2CCC(CN3CCC(c4ccc5c(c4)CN(C4CCC(=O)NC4=O)C5=O)CC3)CC2)CC1 (stereo not drawn) | > 90% |
| Nc1ncnc2c1c(-c1ccc(Oc3ccccc3)cc1)nn2[C@@H]1CCCN(C2CCN(C(=O)N3CCN(CCCC4CCN(c5ccc6c(c5)C(=O)N(C5CCC(=O)NC5=O)C6=O)CC4)CC3)CC2)C1 (stereo partly drawn) | > 75% |
| Nc1ncnc2c1c(-c1ccc(Oc3ccccc3)cc1)nn2[C@@H]1CCCN(C(=O)N2CCC(CCN3CCC(c4ccc5c(c4)CN(C4CCC(=O)NC4=O)C5=O)CC3)CC2)C1 (stereo partly drawn) | > 90% |
| Nc1ncnc2c1c(-c1ccc(Oc3ccccc3)cc1)nn2C1CCN(C(=O)N2CCN(CCCN3CCN(c4ccc5c(c4)CN(C4CCC(=O)NC4=O)C5=O)CC3)CC2)CC1 (stereo not drawn) | > 75% |
| Nc1ncnc2c1c(-c1ccc(Oc3ccccc3)cc1)nn2[C@@H]1CCCN(CC2CCN(C(=O)N3CCC(CN4CCN(c5ccc6c(c5)CN(C5CCC(=O)NC5=O)C6=O)CC4)CC3)CC2)C1 (stereo partly drawn) | > 90% |
| Nc1ncnc2c1c(-c1ccc(Oc3ccccc3)cc1)nn2[C@@H]1CCCN(C2CCN(C(=O)N3CCN(CCN4CCC(c5ccc6c(c5)CN(C5CCC(=O)NC5=O)C6=O)CC4)CC3)CC2)C1 (stereo partly drawn) | > 75% |
| Nc1ncnc2c1c(-c1ccc(Oc3ccccc3)cc1)nn2C1CCN(C(=O)N2CCC(CN3CCC(c4ccc5c(c4)C(=O)N(C4CCC(=O)NC4=O)C5=O)CC3)CC2)CC1 (stereo not drawn) | > 90% |
| Nc1ncnc2c1c(-c1ccc(Oc3ccccc3)cc1)nn2[C@@H]1CCCN(C2CCN(C(=O)N3CCN(CCCC4CCN(c5ccc6c(c5)CN(C5CCC(=O)NC5=O)C6=O)CC4)CC3)CC2)C1 (stereo partly drawn) | > 50% |
